Provide the reported % inhibition of binding of each item.
target: tetanus neurotoxin (TeNT), authentic tetanus holotoxin (Clostridium tetani, UniProt P04958 2-1315); experiment: competition ELISA on TeNT, binder biotinylated; competitor SVT03L; also: test concentration or dose not given here
Sequence (P04958 2-457 limits assumed, chain 1 of 2): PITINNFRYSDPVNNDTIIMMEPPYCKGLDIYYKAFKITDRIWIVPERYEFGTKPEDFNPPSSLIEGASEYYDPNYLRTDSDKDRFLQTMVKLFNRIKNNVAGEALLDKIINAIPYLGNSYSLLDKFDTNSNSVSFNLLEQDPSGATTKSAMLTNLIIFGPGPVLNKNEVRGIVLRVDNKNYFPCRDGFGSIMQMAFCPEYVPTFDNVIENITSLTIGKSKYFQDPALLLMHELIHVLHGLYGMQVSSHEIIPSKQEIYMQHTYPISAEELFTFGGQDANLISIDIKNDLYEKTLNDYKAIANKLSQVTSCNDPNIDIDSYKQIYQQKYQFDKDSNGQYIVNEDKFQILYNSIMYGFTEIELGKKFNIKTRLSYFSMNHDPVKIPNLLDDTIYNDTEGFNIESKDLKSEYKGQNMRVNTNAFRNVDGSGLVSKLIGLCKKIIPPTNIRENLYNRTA
Sequence (P04958 458-1315 limits assumed, chain 2 of 2): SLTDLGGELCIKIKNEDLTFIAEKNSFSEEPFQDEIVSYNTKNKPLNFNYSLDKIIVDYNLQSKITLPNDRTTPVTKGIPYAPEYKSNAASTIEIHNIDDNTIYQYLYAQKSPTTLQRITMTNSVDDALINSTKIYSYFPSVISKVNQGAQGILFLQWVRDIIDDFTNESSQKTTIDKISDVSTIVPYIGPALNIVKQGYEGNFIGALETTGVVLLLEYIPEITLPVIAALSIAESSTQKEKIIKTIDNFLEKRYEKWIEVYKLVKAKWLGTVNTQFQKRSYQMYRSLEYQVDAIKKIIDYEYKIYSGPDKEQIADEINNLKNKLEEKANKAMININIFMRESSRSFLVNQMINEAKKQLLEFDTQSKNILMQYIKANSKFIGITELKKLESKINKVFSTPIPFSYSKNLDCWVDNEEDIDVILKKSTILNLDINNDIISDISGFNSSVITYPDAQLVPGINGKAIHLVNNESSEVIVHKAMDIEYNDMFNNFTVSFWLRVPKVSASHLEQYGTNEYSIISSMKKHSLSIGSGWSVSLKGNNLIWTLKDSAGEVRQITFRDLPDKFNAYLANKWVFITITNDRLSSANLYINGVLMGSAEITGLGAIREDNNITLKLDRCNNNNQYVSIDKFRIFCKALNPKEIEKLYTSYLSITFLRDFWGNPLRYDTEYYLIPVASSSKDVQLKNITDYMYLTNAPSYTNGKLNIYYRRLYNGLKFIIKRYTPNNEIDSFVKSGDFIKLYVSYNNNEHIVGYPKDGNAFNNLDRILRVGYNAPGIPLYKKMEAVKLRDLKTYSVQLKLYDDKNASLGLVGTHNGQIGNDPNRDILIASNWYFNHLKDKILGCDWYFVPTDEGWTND
Numbers only, in %.

Use the examples below as a reference point.
SVT08L (VHH) VHH: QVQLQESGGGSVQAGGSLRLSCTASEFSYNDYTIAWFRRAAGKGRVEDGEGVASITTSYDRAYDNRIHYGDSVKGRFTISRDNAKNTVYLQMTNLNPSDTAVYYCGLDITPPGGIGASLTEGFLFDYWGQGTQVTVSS    0
SVT06L (VHH) VHH: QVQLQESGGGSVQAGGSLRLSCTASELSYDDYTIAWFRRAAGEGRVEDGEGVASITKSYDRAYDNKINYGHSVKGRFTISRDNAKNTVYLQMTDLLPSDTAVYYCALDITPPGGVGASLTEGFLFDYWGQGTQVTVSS    -3

Record % inhibition of binding for all entries; do not skip any.
1. SVT03L (VHH) VHH: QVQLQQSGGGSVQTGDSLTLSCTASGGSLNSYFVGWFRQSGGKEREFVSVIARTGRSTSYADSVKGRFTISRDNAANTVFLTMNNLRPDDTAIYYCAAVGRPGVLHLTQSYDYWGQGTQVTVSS
2. SVT13L (VHH) VHH: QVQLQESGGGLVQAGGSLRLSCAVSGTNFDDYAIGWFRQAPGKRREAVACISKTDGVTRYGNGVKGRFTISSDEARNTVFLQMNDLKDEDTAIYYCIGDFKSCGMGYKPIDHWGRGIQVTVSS

a:
1. 97
2. 1
